# Lookup of reported normalized RNA/DNA level without ligand (log10) keyed by entry
B1: library; a variant is named by its letters at N, in order (parent)
chain: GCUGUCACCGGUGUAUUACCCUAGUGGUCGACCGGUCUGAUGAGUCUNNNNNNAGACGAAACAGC

Variants of: B1
Assay: normalized RNA/DNA level without ligand (relative to sTRSVctl = 100) (log10 (% of sTRSVctl)); ligand: hypoxanthine (xanthine aptamer); higher = less ribozyme self-cleavage, higher mRNA level
Conditions: HEK293T, reporter: mCherry (pCS4076), ligand present: no

Check out these entries, answers already filled in.
>  <sequence_content>
GCUGUCACCGGUGUAUUACCCUAGUGGUCGACCGGUCUGAUGAGUCUAAAUGAAGACGAAACAGC [AAAUGA]

>  <result>
1.69

$$$$
>  <sequence_content>
GCUGUCACCGGUGUAUUACCCUAGUGGUCGACCGGUCUGAUGAGUCUUCCUAUAGACGAAACAGC [UCCUAU]

>  <result>
1.85

$$$$
>  <sequence_content>
GCUGUCACCGGUGUAUUACCCUAGUGGUCGACCGGUCUGAUGAGUCUAUUUACAGACGAAACAGC [AUUUAC]

>  <result>
1.85

$$$$
>  <sequence_content>
GCUGUCACCGGUGUAUUACCCUAGUGGUCGACCGGUCUGAUGAGUCUGAUGCAAGACGAAACAGC [GAUGCA]

>  <result>
1.83

$$$$
>  <sequence_content>
GCUGUCACCGGUGUAUUACCCUAGUGGUCGACCGGUCUGAUGAGUCUGGGAGAAGACGAAACAGC [GGGAGA]

>  <result>
1.43

$$$$

Query GCUGUCACCGGUGUAUUACCCUAGUGGUCGACCGGUCUGAUGAGUCUAAGAGAAGACGAAACAGC [AAGAGA] yields normalized RNA/DNA level without ligand (log10) of 1.25

Query GCUGUCACCGGUGUAUUACCCUAGUGGUCGACCGGUCUGAUGAGUCUUCCAACAGACGAAACAGC [UCCAAC] yields normalized RNA/DNA level without ligand (log10) of 1.9

Query GCUGUCACCGGUGUAUUACCCUAGUGGUCGACCGGUCUGAUGAGUCUUUGCCCAGACGAAACAGC [UUGCCC] yields normalized RNA/DNA level without ligand (log10) of 2

Query GCUGUCACCGGUGUAUUACCCUAGUGGUCGACCGGUCUGAUGAGUCUCGUAGUAGACGAAACAGC [CGUAGU] yields normalized RNA/DNA level without ligand (log10) of 1.87

Query GCUGUCACCGGUGUAUUACCCUAGUGGUCGACCGGUCUGAUGAGUCUUACGCCAGACGAAACAGC [UACGCC] yields normalized RNA/DNA level without ligand (log10) of 1.82

Query GCUGUCACCGGUGUAUUACCCUAGUGGUCGACCGGUCUGAUGAGUCUUAUAGAAGACGAAACAGC [UAUAGA] yields normalized RNA/DNA level without ligand (log10) of 1.63

Query GCUGUCACCGGUGUAUUACCCUAGUGGUCGACCGGUCUGAUGAGUCUAGAUACAGACGAAACAGC [AGAUAC] yields normalized RNA/DNA level without ligand (log10) of 1.74

Query GCUGUCACCGGUGUAUUACCCUAGUGGUCGACCGGUCUGAUGAGUCUGCUAGGAGACGAAACAGC [GCUAGG] yields normalized RNA/DNA level without ligand (log10) of 1.48

Query GCUGUCACCGGUGUAUUACCCUAGUGGUCGACCGGUCUGAUGAGUCUACAAUCAGACGAAACAGC [ACAAUC] yields normalized RNA/DNA level without ligand (log10) of 1.93

Query GCUGUCACCGGUGUAUUACCCUAGUGGUCGACCGGUCUGAUGAGUCUAUGGGAAGACGAAACAGC [AUGGGA] yields normalized RNA/DNA level without ligand (log10) of 1.56

FYI, the data here is from the supplement of paper PMC6757056.
